From: ChEMBL document CHEMBL3352771

target: Cathepsin B (Homo sapiens, UniProt P07858)
Would you kindly list Ki for each of these molecules?
Reply with just the number (in nM).

Data request, read-out Ki, for `CN(C(=O)OC(C)(C)C)N(C#N)CC(=O)N1CCOCC1`
194

# input molecule: `CC(C)(C)OC(=O)NN(C#N)CC(=O)N(Cc1ccccc1)Cc1ccccc1` ; wanted: its Ki
0.406

Entry under review: CCCN1CCN(c2ccc(C(=O)NC3(C(=O)NCC#N)CCCCC3)cc2)CC1 [BALICATIB] . Reported Ki?
3800

Item `CN(Cc1ccccc1)C(=O)CN(C#N)NC(=O)OC(C)(C)C` has what recorded Ki?
0.459

Could you share which Ki value was measured for `CC(C)(C)OC(=O)NN(C#N)CC(=O)N1CCOCC1` ?
3.56
